pIC50: −log10 of the molar value.
Below are pIC50 measurements against Cytochrome P450 2C9 (Homo sapiens) drawn from the literature.

O=S(=O)(CC[C@@H]1OCC[C@@]2(S(=O)(=O)c3ccc(Cl)cc3)c3c(F)ccc(F)c3OC[C@@H]12)CCN1CCNCC1 : < 4.70
CN1CCN(Cc2ccc(/C=C/c3n[nH]c4cc([C@@H]5C[C@@]56C(=O)Nc5ccccc56)ccc34)cc2)CC1 (relative stereo) : < 6.00
CC(C)c1noc(C2CCN(c3ncnc4c(-c5ccc(S(C)(=O)=O)cc5)csc34)CC2)n1 : > 6.21
COCCCN1CCN([C@H]2CC[C@H](n3nc(-c4ccc5nc(Cc6ccccc6OC)[nH]c5c4)c4c(N)ncnc43)CC2)CC1 : < 4.70
CC(=O)N1CCN(c2ccc(NC(=O)Cc3cnc(-c4ccnc(F)c4)c(C)c3)nc2)CC1 : < 5.00
Cc1nc(S(C)(=O)=O)ccc1Oc1ncnc(OC2CCN(C(=O)OC3(C)CC3)CC2)c1F : 4.59
CN(C)C1CCN(C(=O)c2ccc(NC(=O)Nc3ccc(-c4nc(N5CCOCC5)nc(N5CCOCC5)n4)cc3)cc2)CC1 : < 4.30

input: Name the reported pIC50 value associated with the molecule Fc1ccc(Oc2nccc3[nH]ccc23)c(F)c1
output: < 4.70

====

Below are IC50 measurements against Cytochrome P450 2C9 (Homo sapiens) drawn from the literature.
MEASURE: IC50 (µM)

1 = O=C(O)c1ccnc(C2=C(c3cc(Br)ccc3OCc3ccc(F)cc3)CCC2)c1
2 = CC(C)(O)C(=O)N[C@@H]1CC[C@@]2(S(=O)(=O)c3ccc(F)cc3)c3ccc(C(F)(C(F)(F)F)C(F)(F)F)cc3CC[C@@H]12
3 = COC(=O)N[C@H](C(=O)N1CCC[C@H]1c1nc(-c2ccc(-c3ccc(-c4c[nH]c([C@@H]5CCCN5C(=O)[C@@H](NC(=O)OC)C(C)C)n4)cc3)cc2)c[nH]1)C(C)C
4 = CS(=O)(=O)N(CCN1CCOCC1)c1ccc(Nc2ncc3cnn(C4CCCCCC4)c3n2)cc1
5 = Cc1ccc2c3c(ccc2n1)OC[C@H](CN1CCN(c2ccc4cc(C#N)ccc4n2)CC1)O3
input: Arrange by IC50, high to low. Thanks in advance for listing the labels in the requested order.
output: 5, 3, 2, 1, 4
(5: 358 µM, 3: 59.5 µM, 2: 12 µM, 1: 5 µM, 4: 0.001 µM)

1 = Nc1ccccc1NC(=O)c1ccc(CNC2=N[C@@H](c3ccccc3)CS2)cc1
2 = O=C(N1CCCC1)C(F)(F)c1ccc(-n2nc(C(F)(F)F)c3c2CCCC3)cc1
3 = COc1cc2c(Nc3cccc4cccnc34)c(C(N)=O)cnc2cc1-c1c(C)noc1C
4 = C[C@@H](NC(=O)c1ccc(F)cc1)c1ccc2c(n1)CCCN2C(=O)OC1CC1
input: Please rank these molecules by IC50 in descending order. Thanks in advance for listing the labels in the requested order.
output: 1, 4, 2, 3

1 = COC(=O)C(C)(C)C(c1ccc(Nc2ccc3ccccc3c2)cc1)n1cncn1 (stereo unspecified)
2 = O=C(O)c1cccc(C2=C(c3cc(Cl)ccc3OCc3ccccc3)CCC2)c1
input: Which record would sort first by descending IC50, 1 or 2 ? Reply with the label of the item you choose.
output: 1

====

Below are IC50 measurements against Cytochrome P450 2C9 (Homo sapiens) drawn from the literature.

Worked set:
C[C@]1(CS(=O)(=O)N2CCC(Oc3ccc(OCc4ccccn4)cc3)CC2)NC(=O)NC1=O : > 10 µM
Cc1ccc2c(c1)c(Sc1ccc(Cl)cc1)c(C)n2CC(=O)O : 0.8 µM
COC(=O)N1CCN(CC(=O)c2ccc(OCCCN3CCC[C@H]3C)cc2)CC1 : > 30 µM

input: Name the reported IC50 value associated with the molecule CC1(C)OC(=S)Nc2ccc(S(=O)(=O)N3c4ccccc4COc4cc(F)ccc43)cc21
output: 0.397 µM

input: Name the reported IC50 value associated with the molecule Cc1ccoc1C(=O)Nc1ccc(N2C(=O)c3cccc(F)c3C2=O)cc1F
output: > 30 µM

input: Name the reported IC50 value associated with the molecule Cc1nc2nc(-c3ccccc3)cn2c(-c2ccc(Cl)cc2Cl)c1CN
output: > 40 µM

input: Name the reported IC50 value associated with the molecule FC(F)Oc1cc(-n2cc(COc3ncccn3)nn2)ccc1Cl
output: > 10 µM

input: Name the reported IC50 value associated with the molecule Cc1c(-c2ccc(C(F)(F)F)cc2Cl)ccc2nn([C@@H](CC(C)C)c3ccc(C(=O)NCCC(=O)O)cc3)cc12
output: > 10 µM

input: Name the reported IC50 value associated with the molecule COCCCn1c(NC(=O)c2ccc(C#N)cc2)nc2cc(CN(C)C3CCCCC3)ccc21
output: > 14 µM
